The measured values listed here are drawn from patent US20250281453A1.

System: SK-OV-3 ovarian cancer cells
Test: QTX125-containing combination therapy, hexosaminidase cell viability
Format: cell-based
Conditions: Homo sapiens, SK-OV-3, SK-Ov-3; + gemcitabine at EC25 dose (0.1 μM)
Property Name: EC50 (nM)
Enter your answer as a number in nM; do not include the unit.

## Input Which measured EC50 value corresponds to O=C(NO)c1ccc(CNC(=O)c2[nH]c(-c3ccc(O)cc3)cc2-c2ccoc2)cc1 [QTX125] ?
## Output 171

---

Test system: MiaPaCa-2 pancreatic cancer cells
Test: QTX125-containing combination therapy, hexosaminidase cell viability
Type: cell-based
Details: Homo sapiens, MIA PaCa-2, MiaPaCa-2; + gemcitabine at EC25 dose (0.01 μM)
Property Name: EC50 (µM)
Enter your answer as a number in µM; do not include the unit.

## Input Which measured EC50 value corresponds to O=C(NO)c1ccc(CNC(=O)c2[nH]c(-c3ccc(O)cc3)cc2-c2ccoc2)cc1 ?
## Output 0.133
